The origin of these recorded values is patent US12121614B2.

measurementNotes: Phase I clinical trial, food effect part: pharmacokinetics of C21 fed vs fasted
Type: in vivo, human
conditionsUsed: both sexes, human, plasma, po, 75 mg, single oral dose 75 mg, Fed, N = 10; read-out: AUC(0-t), Geometric Mean
endpoint: AUC(0-t) (ng·h/mL)

| compound | endpoint | experimentalValue |
| --- | --- | --- |
| CCCCOC(=O)NS(=O)(=O)c1sc(CC(C)C)cc1-c1ccc(Cn2ccnc2)cc1 [C21] | AUC(0-t) | 742 |

###

measurementNotes: Phase I clinical trial, food effect part: pharmacokinetics of C21 fed vs fasted
Format: in vivo, human
conditionsUsed: both sexes, human, plasma, po, 75 mg, single oral dose 75 mg, Fasted, N = 9, plasma; read-out: Cmax, Geometric Mean

| compound | Cmax [ng/mL] |
| --- | --- |
| CCCCOC(=O)NS(=O)(=O)c1sc(CC(C)C)cc1-c1ccc(Cn2ccnc2)cc1 [C21] | 1710 |

###

measurementNotes: Phase I clinical trial, food effect part: pharmacokinetics of C21 fed vs fasted
Type: in vivo, human
conditionsUsed: both sexes, human, plasma, po, 75 mg, single oral dose 75 mg, Fasted, N = 9; read-out: AUC(0-24), Arithmetic Mean
endpoint: AUC(0-t) (ng·h/mL)

| molecule | experimentalValue |
| --- | --- |
| CCCCOC(=O)NS(=O)(=O)c1sc(CC(C)C)cc1-c1ccc(Cn2ccnc2)cc1 [C21] | 1860 |

###

measurementNotes: Phase I clinical trial, food effect part: pharmacokinetics of C21 fed vs fasted
Assay type: in vivo, human
conditionsUsed: both sexes, human, plasma, po, 75 mg, single oral dose 75 mg, Fed, N = 10; read-out: AUC(0-12), Geometric Mean
endpoint: AUC(0-t) (ng·h/mL)

| structureSmilesString | scaleUnit | experimentalValue |
| --- | --- | --- |
| CCCCOC(=O)NS(=O)(=O)c1sc(CC(C)C)cc1-c1ccc(Cn2ccnc2)cc1 | ng·h/mL | 767 |

###

measurementNotes: Phase I clinical trial, food effect part: pharmacokinetics of C21 fed vs fasted
Type: in vivo, human
conditionsUsed: both sexes, human, plasma, oral, 75 mg, Fed (N = 10), mixed ANOVA model; read-out: AUC(0-inf), Geometric Mean (95% CI), mixed effects model
Method: In addition, the effect of food on the pharmacokinetics (PK) of C21 was investigated in an open label manner in 10 male and female subjects at a single oral dose of 75 mg. […] Plasma concentrations below the lower limit of quantification (LLOQ) were presented as below the lower limit of quantification (BLQ). […] All BLQ values pre-dose and in the absorption phase prior to the first quantifiable concentration were substituted by zeros. […]
endpoint: AUC(0-inf) (ng·h/mL)

| structureSmilesString | endpoint | experimentalValue |
| --- | --- | --- |
| CCCCOC(=O)NS(=O)(=O)c1sc(CC(C)C)cc1-c1ccc(Cn2ccnc2)cc1 | AUC(0-inf) | 769 |

###

measurementNotes: Phase I clinical trial, food effect part: pharmacokinetics of C21 fed vs fasted
Assay type: in vivo, human
conditionsUsed: both sexes, human, plasma, po, 75 mg, single oral dose 75 mg, Fasted, N = 9; read-out: Vz/F, Geometric Mean
endpoint: Vd/F (L)

| structureSmilesString | experimentalValue |
| --- | --- |
| CCCCOC(=O)NS(=O)(=O)c1sc(CC(C)C)cc1-c1ccc(Cn2ccnc2)cc1 | 34.8 |
